TARGET SYSTEM: T1, Human Nectin-4 (residues Gly32-Ser349) with C-terminal FLAG tag, biotinylated (human, UniProt Q96NY8 32-349, randomly biotinylated with EZ-Link Sulfo-NHS-LC-LC-Biotin)
T1 construct: range 32-349; Captured through biotin on a streptavidin CM5 chip in the SPR assay; also called PVRL4; not shown: C-terminal FLAG tag
T1 sequence (looked up): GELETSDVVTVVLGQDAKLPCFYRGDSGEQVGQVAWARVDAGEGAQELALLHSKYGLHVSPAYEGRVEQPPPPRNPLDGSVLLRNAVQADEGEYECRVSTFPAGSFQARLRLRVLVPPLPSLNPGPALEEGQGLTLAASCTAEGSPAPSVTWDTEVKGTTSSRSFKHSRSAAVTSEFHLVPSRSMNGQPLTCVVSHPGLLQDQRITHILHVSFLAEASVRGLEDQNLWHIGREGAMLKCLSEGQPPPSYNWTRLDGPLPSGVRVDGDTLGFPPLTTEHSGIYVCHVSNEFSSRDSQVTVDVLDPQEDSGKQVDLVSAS
ASSAY PROCEDURE: SPR (Biacore), biotinylated human Nectin-4 on streptavidin chip
*1 amine or outer side, *2 acyl side, *3 side chain or, on linkers, in order; H or OH if unused. Bridges are numbered along the chain shown (N, C = ends). Where no end group is shown, it is not given here. [ ]: non-standard residue; d: D form. TATA = O=C(CC[*:1])N1CN(C(=O)CC[*:2])CN(C(=O)CC[*:3])C1; 1Nal = N[C@@H](Cc1cccc2ccccc12)C(=O)O; Hyp = O=C(O)[C@@H]1C[C@@H](O)CN1; dCya = N[C@H](CS(=O)(=O)O)C(=O)O; hArg = N=C(N)NCCCC[C@H](N)C(=O)O; βAla = NCCC(=O)O; Sar = CNCC(=O)O
Assignment: determine reported Kd for the given binders.
Numbers only, in nM.

BINDER	UNITS OF MEASURE	VALUE OBSERVED
Ac-CP[1Nal][dD]CMPDWSTP[Hyp]WC (linker 1-5-15 via TATA, Bicyclic peptide cyclised with TATA) [BCY8182]	nM	0.96
Ac-CP[1Nal][dR]CM[hArg]DWSTPIWC (linker 1-5-15 via TATA, Bicyclic peptide cyclised with TATA) [BCY8215]	nM	1.62
Ac-CP[1Nal][dCya]CM[hArg]DWSTP[Hyp]WC (linker 1-5-15 via TATA, Bicyclic peptide cyclised with TATA) [BCY8163]	nM	0.61

Next item in the queue.
Input {Ac-βAla}-[Sar][Sar][Sar][Sar][Sar]CP[1Nal][dD]CM[hArg]HWSTP[Hyp]WC (linker 6-10-20 via TATA, Bicyclic peptide cyclised with TATA) [BCY8121] . Output Kd: 0.53
